- experiment: chemical genetic growth profiling, strain panel (AID 1159580);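 further: tested at 20 µM; growth read once vehicle control cultures reached saturation at 30 °C; 1 = growth at the plate median or of vehicle wells; lower values mean less growth of the strain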
- condition_parameters: S. cerevisiae deletion strains, growth OD, locus YJL168C, strain set2, stronger effect = lower value
The campaign covered roughly 5,500 compounds. About 2,000 (36%) were called active. About 18% were inconclusive and are not listed. This is one part of the list.
Recorded measurements of normalized growth, one per entry
In your answer, state the number alone without any accompanying words.

[[record]]
compound = "OCC(O)Cc1ccc2c(c1)OCO2 (configuration not stated)"
endpoint = "normalized growth"
experimental_result = 0.994


Enquiry: If you can, please state the reported normalized growth value of C=CC1=C(C(=O)O)N2C(=O)[C@@H](NC(=O)/C(=N/O)c3csc(N)n3)[C@H]2SC1 .
Return: 0.986

Enquiry: Endpoint output: normalized growth of O=C(O)c1cc(=O)c2ccc(Cl)cc2[nH]1 . Value?
Return: 0.992

Enquiry: I am curious: what normalized growth value has been reported for CC(C)N(C(=O)CCl)c1ccccc1 ?
Return: 1

Enquiry: Could you tell me which normalized growth is on file for Cn1cc[nH]c1=S ?
Return: 0.984

Enquiry: So what does the record say about normalized growth for CCCCCC(C)N (configuration not stated) ?
Return: 0.991

Enquiry: Entry C=CCc1ccc2c(c1)OCO2 : reported normalized growth = ?
Return: 0.987

###

- experiment: chemical genetic growth profiling, strain panel (AID 1159580);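 further: tested at 20 µM; growth read once vehicle control cultures reached saturation at 30 °C; 1 = growth at the plate median or of vehicle wells; lower values mean less growth of the strain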
- condition_parameters: S. cerevisiae deletion strains, growth OD, locus YML016C, strain PPZ1
Out of some 5,500 compounds screened, about 2,000 (36%) were called active. Another 18% or so got no clear call; they are omitted. Rule as the data show it: active = normalized growth mostly below about 0.91 (no sharp cut-off); inconclusive = no clear call, values can overlap the other calls; inactive = mostly above about 0.92. Some of the results follow.
Allowed answers: yes (1) (active), no (0) (inactive)

Recorded results for 2 molecules are shown here.
[[record]]
molecule = "COc1ccc(C[C@H]2NC[C@H](O)[C@H]2OC(C)=O)cc1"
class_assignment = "yes (1)"

[[record]]
molecule = "CCCCCC(=O)O[C@]1(C(C)=O)CCC2C3CCC4=CC(=O)CC[C@]4(C)C3CC[C@@]21C (stereo partly drawn)"
class_assignment = "no (0)"


Shift focus to the following entry.
Enquiry: Test call for this molecule, please: CC(=O)O[C@]1(C(C)=O)CCC2C3C[C@H](C)C4=CC(=O)CC[C@]4(C)C3CC[C@@]21C (stereo partly drawn)
Return: no (0)

###

- experiment: chemical genetic growth profiling, strain panel (AID 1159580);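 further: tested at 20 µM; growth read once vehicle control cultures reached saturation at 30 °C; 1 = growth at the plate median or of vehicle wells; lower values mean less growth of the strain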
- condition_parameters: S. cerevisiae deletion strains, growth OD, locus YNL153C, strain GIM3, stronger effect = lower value
Screen size: about 5,500 compounds; about 2,000 (36%) were called active. Another 18% or so got no clear call; they are omitted. This is one part of the list.
endpoint: normalized growth
In your answer, state the number alone without any accompanying words.

[[record]]
compound = "COC(=O)c1c(Cl)c(Cl)c(C(=O)OC)c(Cl)c1Cl"
experimental_result = 1

[[record]]
compound = "Oc1ccc(O)cc1"
experimental_result = 0.995

[[record]]
compound = "COC(=O)c1cc(OC)c(OC)c(OC)c1NS(=O)(=O)c1cc(OC)ccc1OC"
experimental_result = 0.992

[[record]]
compound = "OC(CCN1CCCCC1)(c1ccccc1)c1ccccc1"
experimental_result = 0.998

[[record]]
compound = "C[C@@H]1O[C@@H](O[C@H]2[C@@H](Oc3cc(O)c4c(c3)O[C@H](c3ccc(O)cc3)CC4=O)O[C@H](CO)[C@@H](O)[C@@H]2O)[C@H](O)[C@H](O)[C@H]1O"
experimental_result = 0.981


Enquiry: Consider the compound shown here: CCCCOc1ccc(OCCCN2CCOCC2)cc1 What is its recorded normalized growth?
Return: 0.903
